Test system: 935938-334-R-J1-PDC complex spheroid viability;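 further: spheroids exposed to drugs for seven days before viability read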
Assay: Anticancer human tumor 935938-334-R-J1-PDC patient-derived small intestine adenocarcinoma cell line growth inhibition [POLQ]; active means viability on the fitted dose curve at most 10% of control; inactive means the rest
Conditions: second compound 3.16 µM; first compound 1 µM
Allowed answers: active, inactive

Worked examples follow.
molecule	test-system	group-label
O=c1[nH]cc(F)c(=O)[nH]1 + Cc1cccc(N(C)C(=O)C2C(O)CCN2c2nc(C)cc(C(F)(F)F)c2C#N)c1	935938-334-R-J1-PDC complex spheroid viability	inactive
CCc1c2c(nc3ccc(O)cc13)-c1cc3c(c(=O)n1C2)COC(=O)[C@]3(O)CC + COC1C(OC(N)=O)C(O)C(Oc2ccc3c(O)c(NC(=O)c4ccc(O)c(CC=C(C)C)c4)c(=O)oc3c2C)OC1(C)C	935938-334-R-J1-PDC complex spheroid viability	inactive
O=c1[nH]cc(F)c(=O)[nH]1 + COC1C(OC(N)=O)C(O)C(Oc2ccc3c(O)c(NC(=O)c4ccc(O)c(CC=C(C)C)c4)c(=O)oc3c2C)OC1(C)C	935938-334-R-J1-PDC complex spheroid viability	inactive

QUERY: Kindly provide the recorded test outcome for the following molecule: COc1cccc(OCCCN)c1-c1cc(Nc2cnc(C#N)cn2)n[nH]1 + Cc1cccc(N(C)C(=O)C2C(O)CCN2c2nc(C)cc(C(F)(F)F)c2C#N)c1
RESULT: active

QUERY: Each molecule tested received a call. Report the one for CCCS(=O)(=O)Nc1ccc(F)c(C(=O)c2c[nH]c3ncc(-c4ccc(Cl)cc4)cc23)c1F + COC1C(OC(N)=O)C(O)C(Oc2ccc3c(O)c(NC(=O)c4ccc(O)c(CC=C(C)C)c4)c(=O)oc3c2C)OC1(C)C .
RESULT: inactive

QUERY: Name the outcome recorded for COc1cc(C2c3cc4c(cc3C(OC3OC5COC(C)OC5C(O)C3O)C3COC(=O)C23)OCO4)cc(OC)c1O (stereo unspecified) + Cc1cccc(N(C)C(=O)C2C(O)CCN2c2nc(C)cc(C(F)(F)F)c2C#N)c1 in the assay.
RESULT: inactive

QUERY: Recorded call for CC1COCCN1c1cc(C2(S(C)(=N)=O)CC2)nc(-c2ccnc3[nH]ccc23)n1 (stereo unspecified) + Nc1ccc(C#CCN(C(=O)Cc2ncc(C(F)(F)F)cc2C(F)(F)F)c2ccc(F)cc2)nn1 ?
RESULT: inactive

QUERY: Status in this test for C=CC(=O)N1CCN(c2nc(=O)n(-c3c(C)ccnc3C(C)C)c3nc(-c4c(O)cccc4F)c(F)cc23)C(C)C1 (stereo unspecified) + Cc1cccc(N(C)C(=O)C2C(O)CCN2c2nc(C)cc(C(F)(F)F)c2C#N)c1 ?
RESULT: inactive

QUERY: # fetch the recorded call for CC1COCCN1c1cc(C2(S(C)(=N)=O)CC2)nc(-c2ccnc3[nH]ccc23)n1 (stereo unspecified) + COC1C(OC(N)=O)C(O)C(Oc2ccc3c(O)c(NC(=O)c4ccc(O)c(CC=C(C)C)c4)c(=O)oc3c2C)OC1(C)C here
RESULT: inactive

QUERY: Please share the test call associated with COc1cccc2c1C(=O)c1c(O)c3c(c(O)c1C2=O)CC(O)(C(=O)CO)CC3OC1CC(N)C(O)C(C)O1 (stereo unspecified) + COC1C(OC(N)=O)C(O)C(Oc2ccc3c(O)c(NC(=O)c4ccc(O)c(CC=C(C)C)c4)c(=O)oc3c2C)OC1(C)C .
RESULT: inactive

QUERY: Hey, what did the test say about COc1cc(C2c3cc4c(cc3C(OC3OC5COC(C)OC5C(O)C3O)C3COC(=O)C23)OCO4)cc(OC)c1O (stereo unspecified) + COC1C(OC(N)=O)C(O)C(Oc2ccc3c(O)c(NC(=O)c4ccc(O)c(CC=C(C)C)c4)c(=O)oc3c2C)OC1(C)C ?
RESULT: inactive
